ASSAYED_TARGET: menin/MLL (terbium chelate-labeled menin, FITC-MBM1 peptide) (Homo sapiens (Human), UniProt O00255)
Sequence (O00255 other isoform, or with tags, fused parts or gaps): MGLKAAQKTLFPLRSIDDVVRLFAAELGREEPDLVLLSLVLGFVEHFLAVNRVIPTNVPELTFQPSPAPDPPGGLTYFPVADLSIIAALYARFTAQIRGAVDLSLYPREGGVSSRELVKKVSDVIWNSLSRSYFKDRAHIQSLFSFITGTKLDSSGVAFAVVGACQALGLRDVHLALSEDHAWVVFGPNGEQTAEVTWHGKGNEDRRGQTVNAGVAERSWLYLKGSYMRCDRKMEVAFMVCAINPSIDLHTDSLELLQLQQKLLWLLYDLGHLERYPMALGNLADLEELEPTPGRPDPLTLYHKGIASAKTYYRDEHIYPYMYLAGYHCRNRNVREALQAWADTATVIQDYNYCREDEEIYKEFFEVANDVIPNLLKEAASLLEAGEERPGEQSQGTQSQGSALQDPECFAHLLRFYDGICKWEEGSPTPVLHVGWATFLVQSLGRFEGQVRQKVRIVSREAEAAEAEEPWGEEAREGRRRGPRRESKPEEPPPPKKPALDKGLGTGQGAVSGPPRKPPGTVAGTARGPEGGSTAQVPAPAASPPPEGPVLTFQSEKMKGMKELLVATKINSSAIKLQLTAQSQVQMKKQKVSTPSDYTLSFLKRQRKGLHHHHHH
ASSAY_DETAILS: Menin/MLL homogenous time-resolved fluorescence (HTRF) assay
Assay type: binding
TEST_SETTINGS: HTRF-30 min incubation IC50, 30 min incubation
Counter-ions that a name gives are not always drawn.
pIC50 for assorted compounds
pIC50 is defined as minus the log10 of a concentration measured in mol/L.

CCN(C(=O)c1cc(F)ccc1Oc1nncnc1N1CCC2(C1)CN([C@H](CCCN)C(C)C)C2)C(C)C [Compound 1, formate]
9.89
CCN(C(=O)c1cc(F)ccc1Oc1nncnc1N1CCC2(C1)CN([C@H](CCCCN)C(C)C)C2)C(C)C (single isomer, unassigned)
9.57
CCN(C(=O)c1cc(F)ccc1Oc1nncnc1N1CCC2(C1)CN([C@@H](CCCN(C)C(C)C)C(C)C)C2)C(C)C (single isomer, unassigned)
8.40
CC(C)[C@@H](CCC(N)=O)N1CC2(CCN(c3ncnnc3Oc3ccc(F)cc3-c3cncnc3C3CC3)C2)C1 (single isomer, unassigned)
9.26
CCN(C(=O)c1cc(F)ccc1Oc1nncnc1N1CCC2(C1)CN([C@H](CCN(C)CCO)C(C)C)C2)C(C)C (single isomer, unassigned)
9.27

In: Answer with the recorded pIC50 of CCN(C(=O)c1cc(F)ccc1Oc1nncnc1N1CCC2(C1)CN([C@H](CCCN(C)C)C(C)C)C2)C(C)C only.
Out: 10.02

###

Test system: KO-52 cells
ASSAY_DETAILS: Proliferation assay (spheroid growth, 8 days), KO-52 control cell line
Format: cell-based, human
TEST_SETTINGS: Homo sapiens, […], read-out: spheroid assay_OneTime KO-52 IC50
Counter-ions that a name gives are not always drawn.
ATTRIBUTE_MEASURED: IC50

CCN(C)CCC[C@H](C(C)C)N1CC2(CCN(c3ncnnc3Oc3ccc(F)cc3C(=O)N(CC)C(C)C)C2)C1 (single isomer, unassigned)
10.4 µM
CC(C)[C@@H](CCC(N)=O)N1CC2(CCN(c3ncnnc3Oc3ccc(F)cc3-c3cncnc3C3CC3)C2)C1 (single isomer, unassigned)
> 15 µM
CCN(C(=O)c1cc(F)ccc1Oc1nncnc1N1CCC2(C1)CN([C@H](CCNCCC(N)=O)C(C)C)C2)C(C)C (single isomer, unassigned)
> 15 µM
CCN(C(=O)c1cc(F)ccc1Oc1nncnc1N1CCC2(C1)CN([C@H](CCCNCC(F)F)C(C)C)C2)C(C)C
3.7 µM
CCN(C(=O)c1cc(F)ccc1Oc1nncnc1N1CCC2(C1)CN([C@H](CCCN(C)CC(C)OC)C(C)C)C2)C(C)C (single isomer, unassigned) [Compound 254, oxalate]
> 15 µM

In: Answer with the recorded IC50 of CCN(C(=O)c1cc(F)ccc1Oc1nncnc1N1CCC2(C1)CN([C@H](CCCN(C)CC(C)C(=O)N(C)C)C(C)C)C2)C(C)C (stereo partly drawn) [Compound 181, fumarate] only.
Out: 14 µM

In: Answer with the recorded IC50 of CCN(C(=O)c1cc(F)ccc1Oc1nncnc1N1CCC2(C1)CN([C@@H](CCCN(C)C(C)C)C(C)C)C2)C(C)C (single isomer, unassigned) only.
Out: > 15 µM

###

IC50 for assorted compounds
ASSAYED_TARGET: menin/MLL (terbium chelate-labeled menin, FITC-MBM1 peptide) (Homo sapiens (Human), UniProt O00255)
ASSAY_DETAILS: Menin/MLL homogenous time-resolved fluorescence (HTRF) assay;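 note: IC50 from percent inhibition of HTRF signal, normalized between wells without competitor and wells with a saturating competitor that displaces FITC-MBM1 from His-tagged menin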
Type: binding
TEST_SETTINGS: HTRF-30 min incubation IC50, 30 min incubation
Counter-ions that a name gives are not always drawn.
A complete answer gives the number and then names the unit.

CCN(C(=O)c1cc(F)ccc1Oc1nncnc1N1CCC2(C1)CN([C@H](CCN)C(C)C)C2)C(C)C (single isomer, unassigned)
0.27 nM
CCN(C)C[C@H](C[C@@H](C(C)C)N1CC2(CCN(c3ncnnc3Oc3ccc(F)cc3C(=O)N(CC)C(C)C)C2)C1)OC (single isomer, unassigned)
14.2 nM
CC(C)[C@H](CCCN(C)CCC(=O)N(C)C)N1CC2(CCN(c3ncnnc3Oc3ccc(F)cc3C(=O)N(C(C)C)C(C)C)C2)C1 (single isomer, unassigned)
0.081 nM
CCN(C(=O)c1cc(F)ccc1Oc1nncnc1N1CCC2(C1)CN([C@@H](CCC(C)(C)NC)C(C)C)C2)C(C)C (single isomer, unassigned) [Compound 36, hydrochloride]
2.6 nM

Next compound, please.
In: Answer with the recorded IC50 of CCN(C(=O)c1cc(F)ccc1Oc1nncnc1N1CCC2(C1)CN([C@H](CCCN(C)[C@@H](C)COC)C(C)C)C2)C(C)C only.
Out: 0.12 nM

###

ASSAYED_TARGET: menin/MLL (terbium chelate-labeled menin, FITC-MBM1 peptide) (Homo sapiens (Human))
ASSAY_DETAILS: Menin/MLL homogenous time-resolved fluorescence (HTRF) assay
Assay type: binding
TEST_SETTINGS: HTRF-30 min incubation IC50, 30 min incubation
Where a name gives a salt, the structure may show the parent alone.
Measured IC50 determines class: lower segment = under 0.1 nM, middle segment = from 0.1 nM up to 0.9 nM, upper segment = 0.9 nM and over

# example entries with known answers
CCN(C(=O)c1cc(F)ccc1Oc1nncnc1N1CCC2(C1)CN([C@H](CCCN(C)CC(C)C(=O)N(C)C)C(C)C)C2)C(C)C (some centres unmarked) [Compound 181, fumarate]
lower segment
CC(C)C(CCCN(C)C)N1CC2(CCN(c3ccnnc3Oc3ccc(F)cc3C(=O)N(C(C)C)C(C)C)C2)C1 (centres unmarked)
middle segment
COCCN(C)CCC[C@@H](C(C)C)N1CC2(CCN(c3ncnnc3Oc3ccc(F)cc3C(=O)N(C(C)C)C(C)C)C2)C1 (single isomer, unassigned)
upper segment

In: // return the class label for CCN(C(=O)c1cc(F)ccc1Oc1nncnc1N1CCC2(C1)CN([C@H](CCCN(C)C[C@H](C)C(=O)N(C)C)C(C)C)C2)C(C)C (single isomer, unassigned)
Out: middle segment

In: // return the class label for CCN(C(=O)c1cc(F)ccc1Oc1nncnc1N1CCC2(C1)CN([C@H](CCCN(C)[C@H](C)CC(=O)NC)C(C)C)C2)C(C)C [Compound 191, fumarate]
Out: middle segment

In: // return the class label for CCN(C)C[C@@H](O)C[C@H](C(C)C)N1CC2(CCN(c3ncnnc3Oc3ccc(F)cc3C(=O)N(CC)C(C)C)C2)C1 (single isomer, unassigned)
Out: middle segment

In: // return the class label for CCN(C(=O)c1cc(F)ccc1Oc1nncnc1N1CCC2(C1)CN([C@H](C[C@@H](O)CN(C)CCOC)C(C)C)C2)C(C)C (single isomer, unassigned)
Out: lower segment

In: // return the class label for CCN(CC)C[C@H](O)C[C@H](C(C)C)N1CC2(CCN(c3ncnnc3Oc3ccc(F)cc3C(=O)N(CC)C(C)C)C2)C1 (single isomer, unassigned)
Out: lower segment

In: // return the class label for CCN(C(=O)c1cc(F)ccc1Oc1nncnc1N1CCC2(C1)CN([C@@H](CCCNC(C)=O)C(C)C)C2)C(C)C
Out: upper segment

In: // return the class label for CCN(C)CCC[C@@H](C(C)C)N1CC2(CCN(c3ncnnc3Oc3ccc(F)cc3C(=O)N(CC)C(C)C)C2)C1 (single isomer, unassigned)
Out: upper segment

In: // return the class label for CCN(C(=O)c1cc(F)ccc1Oc1nncnc1N1CCC2(C1)CN([C@H](CCCNCCC#N)C(C)C)C2)C(C)C
Out: middle segment

###

Tested on: MEIS1 mRNA
ASSAY_DETAILS: MEIS1 mRNA expression assay (Quantigene Singleplex) in MOLM14 cells;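 note: MEIS1 transcript levels read by probe hybridization and normalized to RPL28 mRNA, with IC50 fitted to fold changes across a rising compound concentration series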
Format: cell-based, human
TEST_SETTINGS: 48 hours incubation
pIC50: −log10 of the molar value.
ATTRIBUTE_MEASURED: pIC50

CCN(C(=O)c1cc(F)ccc1Oc1nncnc1N1CCC2(C1)CN([C@@H](CCO)C(C)C)C2)C(C)C (single isomer, unassigned) [Compound 215]
< 6.00
CC(C)[C@@H](CCCN(C)C)N1CC2(CCN(c3ccnnc3Oc3ccc(F)cc3C(=O)N(C(C)C)C(C)C)C2)C1 (single isomer, unassigned) [Compound 75]
6.85

In: Answer with the recorded pIC50 of CCN(C(=O)c1cc(F)ccc1Oc1nnccc1N1CCC2(C1)CN([C@@H](CCCN(C)C)C(C)C)C2)C(C)C (single isomer, unassigned) [Compound 78] only.
Out: < 6.00

In: Answer with the recorded pIC50 of CNC(=O)CC[C@H](C(C)C)N1CC2(CCN(c3ncnnc3Oc3ccc(F)cc3-c3cncnc3C3CC3)C2)C1 (single isomer, unassigned) [Compound 46] only.
Out: < 5.60

In: Answer with the recorded pIC50 of CCN(C(=O)c1cc(F)ccc1Oc1nncnc1N1CCC2(C1)CN([C@@H](CCCO)C(C)C)C2)C(C)C (single isomer, unassigned) [Compound 48] only.
Out: < 6.00
